test system: human Factor 7 mRNA; assay: Dose-dependent antisense inhibition of human Factor 7 in HepB3 cells, lipofectin; assay type: cell-based; conditions: Table 7, 6.25 nM, approximately 16 hours
Strand notation (5' to 3'): a small letter for the sugar, then the base; units joined by * are phosphorothioate-linked, units joined directly phosphodiester-linked; [ ] holds rarer units or linkages, { } end groups; capitals alone tell only the bases. e = 2'-O-(2-methoxyethyl) (MOE); [5mC] = 5-methylcytosine; d = 2'-deoxy (DNA)
# percent inhibition of Factor 7 per entry
Unit % implied. Number only.

407643 (antisense e[5mC]*eA*e[5mC]*eA*e[5mC]*dA*dT*dG*dG*dA*dG*dT*d[5mC]*dA*dG*e[5mC]*eA*eT*e[5mC]*eG) [compound 407643] ... 36
416472 (antisense e[5mC]*eA*eG*e[5mC]*e[5mC]*dT*dT*dG*dG*d[5mC]*dT*dT*dT*d[5mC]*dT*e[5mC]*eT*e[5mC]*e[5mC]*eA) [compound 416472] ... 16
416549 (antisense eG*eA*e[5mC]*eA*eA*dT*dG*dG*dT*d[5mC]*dA*dG*dG*dG*d[5mC]*eT*eG*eG*eT*eT) [compound 416549] ... 38
407939 (antisense eT*eG*e[5mC]*eA*eG*d[5mC]*d[5mC]*d[5mC]*dG*dG*d[5mC]*dA*d[5mC]*d[5mC]*d[5mC]*eA*eG*e[5mC]*eG*eA) [compound 407939] ... 37

Consider the additional substance presented here.
Asked: Tell me its percent inhibition of Factor 7 given 416507 (antisense eG*eG*eT*eT*eA*d[5mC]*dT*dG*dA*dG*d[5mC]*dG*d[5mC]*dG*dG*eA*eA*eG*eA*eA) [compound 416507] as the entry.
Given back: 30

* * *

test system: human Factor 7 mRNA; assay: Antisense inhibition of human Factor 7 with short (14-mer) oligonucleotides in HepB3 cells, electroporation 1,000 nM; format: cell-based; conditions: electroporation, 1,000 nM antisense oligonucleotide, approximately 24 hours, Factor 7 mRNA relative to untreated control cells
Strand notation (5' to 3'): a small letter for the sugar, then the base; units joined by * are phosphorothioate-linked, units joined directly phosphodiester-linked; [ ] holds rarer units or linkages, { } end groups; capitals alone tell only the bases. e = 2'-O-(2-methoxyethyl) (MOE); [5mC] = 5-methylcytosine; d = 2'-deoxy (DNA)
The reader will find reported % Inhibition values listed item by item below.
Answers without a unit are incomplete; give the number and then its unit.

Here's what some known entries look like.
435811 (antisense eG*eT*dG*dG*dT*d[5mC]*dA*dA*dG*dG*dA*dT*eG*eA) [compound 435811] ... 27%
435779 (antisense eT*eG*dA*dG*d[5mC]*dG*d[5mC]*dG*dG*dA*dA*dG*eA*eA) [compound 435779] ... 50%
435685 (antisense eA*eG*dG*dA*d[5mC]*d[5mC]*dA*d[5mC]*dG*dG*dG*d[5mC]*eT*eG) [compound 435685] ... 40%
435769 (antisense eT*eT*d[5mC]*dT*dT*dT*dG*dA*dA*dA*dA*dA*eT*eA) [compound 435769] ... 0%
435805 (antisense eT*eG*dA*dA*dT*dT*dA*d[5mC]*dT*dG*dA*dA*e[5mC]*e[5mC]) [compound 435805] ... 0%
435690 (antisense eG*eT*d[5mC]*d[5mC]*dG*dT*dT*d[5mC]*dG*dG*dG*d[5mC]*eA*eG) [compound 435690] ... 55%

Asked: Report % Inhibition, nothing else, for this substance: 435497 (antisense eG*eG*dG*dA*dG*dA*d[5mC]*d[5mC]*d[5mC]*dT*dG*dG*eT*eG) [compound 435497]
Given back: 27%

Asked: For the substance 435717 (antisense eT*eG*dA*dG*d[5mC]*dT*dT*dT*dT*dG*d[5mC]*dA*eG*e[5mC]) [compound 435717] , report % Inhibition.
Given back: 0%

* * *

system: human Factor 7 mRNA; experiment: Antisense inhibition of human Factor 7 mRNA in HepB3 cells, 50 nM antisense oligonucleotide, lipofectin; format: cell-based; details: lipofectin, 50 nM antisense oligonucleotide, approximately 24 hours, Factor 7 mRNA by real-time RT-PCR (RTS 2927), relative to untreated control
Strand notation (5' to 3'): a small letter for the sugar, then the base; units joined by * are phosphorothioate-linked, units joined directly phosphodiester-linked; [ ] holds rarer units or linkages, { } end groups; capitals alone tell only the bases. e = 2'-O-(2-methoxyethyl) (MOE); [5mC] = 5-methylcytosine; d = 2'-deoxy (DNA)
Could you label it label 1 if measured % Inhibition is 50% or higher, and label 0 otherwise?

The examples below pair each entry with its known result.
416479 (antisense eG*eA*e[5mC]*eA*eG*d[5mC]*dA*d[5mC]*dA*d[5mC]*dA*dT*dG*dG*dA*eG*eT*e[5mC]*eA*eG) [compound 416479] ... label 1
416535 (antisense eG*e[5mC]*eA*eG*eG*dA*dT*dG*d[5mC]*dA*d[5mC]*dA*d[5mC]*d[5mC]*dA*eG*eG*eG*e[5mC]*eT) [compound 416535] ... label 0
407900 (antisense e[5mC]*e[5mC]*e[5mC]*e[5mC]*eA*d[5mC]*dA*dA*dT*dT*d[5mC]*dG*dG*d[5mC]*d[5mC]*eT*eT*eG*eG*eG) [compound 407900] ... label 1
416484 (antisense eT*eA*e[5mC]*eA*eG*d[5mC]*d[5mC]*dT*d[5mC]*dA*dA*dA*d[5mC]*dA*dT*e[5mC]*eT*eA*eT*e[5mC]) [compound 416484] ... label 0
416470 (antisense eG*e[5mC]*eT*eT*eT*dT*dG*d[5mC]*dA*dG*d[5mC]*d[5mC]*dA*d[5mC]*dT*e[5mC]*eG*eA*eT*eG) [compound 416470] ... label 0

Asked: Given the entry 416514 (antisense eG*eT*eA*eT*eT*dT*dT*d[5mC]*dT*dG*dA*dT*dG*dT*dG*eA*eA*eA*eA*e[5mC]) [compound 416514] , answer whether its % Inhibition meets or surpasses 50%.
Given back: label 0

Asked: Threshold query (% Inhibition >= 50%) on 416439 (antisense eG*eT*e[5mC]*e[5mC]*eT*dT*dG*d[5mC]*dA*dG*dG*dA*dG*d[5mC]*d[5mC]*e[5mC]*e[5mC]*e[5mC]*eA*eT) [compound 416439]
Given back: label 1

* * *

Tested on: human Factor 7 mRNA
Test: Antisense inhibition of human Factor 7 with short (14-mer) oligonucleotides in HepB3 cells, electroporation 1,000 nM
Assay type: cell-based
Conditions: electroporation, 1,000 nM antisense oligonucleotide, approximately 24 hours, Factor 7 mRNA relative to untreated control cells
Method: Short antisense oligonucleotides (shortmers) were designed to target a Factor 7 nucleic acid. The shortmers in Table 17 were designed as 2-10-2 MOE gapmers. […] Shortmers were evaluated for their ability to reduce human Factor 7 mRNA in HepB3 cells and compared with one 5-10-5 chimeric oligonucleotide from Table 16, ISIS 407939. […] After a treatment period of approximately 24 hours, RNA was isolated from the cells and Factor 7 mRNA levels were measured by real-time RT-PCR, as described herein. […]
Strand notation (5' to 3'): a small letter for the sugar, then the base; units joined by * are phosphorothioate-linked, units joined directly phosphodiester-linked; [ ] holds rarer units or linkages, { } end groups; capitals alone tell only the bases. e = 2'-O-(2-methoxyethyl) (MOE); [5mC] = 5-methylcytosine; d = 2'-deoxy (DNA)
% Inhibition of 50% or higher: class 1. Under 50%: class 0.

Answered cases to consult:
435493 (antisense eG*eA*d[5mC]*d[5mC]*d[5mC]*dT*dG*dG*dT*dG*dT*dA*e[5mC]*eA) [compound 435493] ... class 1
435812 (antisense eG*e[5mC]*dT*dG*dA*dG*d[5mC]*dA*dG*dA*dG*dA*eT*e[5mC]) [compound 435812] ... class 0
435813 (antisense eG*eG*dA*dT*dG*d[5mC]*dA*d[5mC]*dA*d[5mC]*d[5mC]*dA*eG*eG) [compound 435813] ... class 1
435486 (antisense eG*eT*d[5mC]*d[5mC]*dT*dG*dG*dG*dT*d[5mC]*dA*dT*e[5mC]*eA) [compound 435486] ... class 1

Could you now look at the following substance, please?
Asked: In plain terms: is recorded % Inhibition at least 50% for 435496 (antisense eG*eG*dA*dG*dA*d[5mC]*d[5mC]*d[5mC]*dT*dG*dG*dT*eG*eT) [compound 435496] ?
Given back: class 0

* * *

system: human Factor 7 mRNA; assay: Dose-dependent antisense inhibition of human Factor 7 in HepB3 cells, lipofectin; assay type: cell-based; settings: 12.5 nM, HepB3 cells, approx. 16 hours (Table 14)
Strand notation (5' to 3'): a small letter for the sugar, then the base; units joined by * are phosphorothioate-linked, units joined directly phosphodiester-linked; [ ] holds rarer units or linkages, { } end groups; capitals alone tell only the bases. e = 2'-O-(2-methoxyethyl) (MOE); [5mC] = 5-methylcytosine; d = 2'-deoxy (DNA)
reported metric: percent inhibition of Factor 7 mRNA, relative to untreated control cells (%)
Report only the number, with the unit % understood.

Sample answers from the record:
422252 (antisense e[5mC]*eG*d[5mC]*d[5mC]*dG*dG*d[5mC]*dT*d[5mC]*dT*dG*d[5mC]*dT*d[5mC]*dA*eT*e[5mC]*e[5mC]*e[5mC]*e[5mC]) [compound 422252] ... 45
422140 (antisense eG*eT*eT*e[5mC]*eT*dG*d[5mC]*dA*dG*dG*dA*dG*d[5mC]*dG*dG*e[5mC]*e[5mC]*eT*eA*eA) [compound 422140] ... 49
422087 (antisense e[5mC]*eA*eT*eG*e[5mC]*dA*dT*dG*dG*dT*dG*dA*dT*dG*d[5mC]*eT*eT*e[5mC]*eT*eG) [compound 422087] ... 51
407935 (antisense eA*eT*eG*e[5mC]*eA*dT*dG*dG*dT*dG*dA*dT*dG*d[5mC]*dT*eT*e[5mC]*eT*eG*eA) [compound 407935] ... 58

Asked: Answer briefly: percent inhibition of Factor 7 mRNA, relative to untreated control cells recorded on human Factor 7 mRNA for 422295 (antisense e[5mC]*eG*dA*dG*dT*dT*d[5mC]*dT*dG*d[5mC]*dA*dG*dG*dA*dG*e[5mC]*eG*eG*e[5mC]*e[5mC]) [compound 422295]
Given back: 44

Asked: Fetch value of percent inhibition of Factor 7 mRNA, relative to untreated control cells on human Factor 7 mRNA for 422228 (antisense eT*eG*d[5mC]*dA*dT*dG*dG*dT*dG*dA*dT*dG*d[5mC]*dT*dT*e[5mC]*eT*eG*eA*eA) [compound 422228] .
Given back: 43

Asked: // fetch percent inhibition of Factor 7 mRNA, relative to untreated control cells; item: 407939 (antisense eT*eG*e[5mC]*eA*eG*d[5mC]*d[5mC]*d[5mC]*dG*dG*d[5mC]*dA*d[5mC]*d[5mC]*d[5mC]*eA*eG*e[5mC]*eG*eA) [compound 407939] ; system: human Factor 7 mRNA
Given back: 57
